Target: calcium channel (Cavia porcellus, UniProt A0A286X7I0)
Construct: guinea-pig skeletal muscle membranes
Sequence (A0A286X7I0 1-1867): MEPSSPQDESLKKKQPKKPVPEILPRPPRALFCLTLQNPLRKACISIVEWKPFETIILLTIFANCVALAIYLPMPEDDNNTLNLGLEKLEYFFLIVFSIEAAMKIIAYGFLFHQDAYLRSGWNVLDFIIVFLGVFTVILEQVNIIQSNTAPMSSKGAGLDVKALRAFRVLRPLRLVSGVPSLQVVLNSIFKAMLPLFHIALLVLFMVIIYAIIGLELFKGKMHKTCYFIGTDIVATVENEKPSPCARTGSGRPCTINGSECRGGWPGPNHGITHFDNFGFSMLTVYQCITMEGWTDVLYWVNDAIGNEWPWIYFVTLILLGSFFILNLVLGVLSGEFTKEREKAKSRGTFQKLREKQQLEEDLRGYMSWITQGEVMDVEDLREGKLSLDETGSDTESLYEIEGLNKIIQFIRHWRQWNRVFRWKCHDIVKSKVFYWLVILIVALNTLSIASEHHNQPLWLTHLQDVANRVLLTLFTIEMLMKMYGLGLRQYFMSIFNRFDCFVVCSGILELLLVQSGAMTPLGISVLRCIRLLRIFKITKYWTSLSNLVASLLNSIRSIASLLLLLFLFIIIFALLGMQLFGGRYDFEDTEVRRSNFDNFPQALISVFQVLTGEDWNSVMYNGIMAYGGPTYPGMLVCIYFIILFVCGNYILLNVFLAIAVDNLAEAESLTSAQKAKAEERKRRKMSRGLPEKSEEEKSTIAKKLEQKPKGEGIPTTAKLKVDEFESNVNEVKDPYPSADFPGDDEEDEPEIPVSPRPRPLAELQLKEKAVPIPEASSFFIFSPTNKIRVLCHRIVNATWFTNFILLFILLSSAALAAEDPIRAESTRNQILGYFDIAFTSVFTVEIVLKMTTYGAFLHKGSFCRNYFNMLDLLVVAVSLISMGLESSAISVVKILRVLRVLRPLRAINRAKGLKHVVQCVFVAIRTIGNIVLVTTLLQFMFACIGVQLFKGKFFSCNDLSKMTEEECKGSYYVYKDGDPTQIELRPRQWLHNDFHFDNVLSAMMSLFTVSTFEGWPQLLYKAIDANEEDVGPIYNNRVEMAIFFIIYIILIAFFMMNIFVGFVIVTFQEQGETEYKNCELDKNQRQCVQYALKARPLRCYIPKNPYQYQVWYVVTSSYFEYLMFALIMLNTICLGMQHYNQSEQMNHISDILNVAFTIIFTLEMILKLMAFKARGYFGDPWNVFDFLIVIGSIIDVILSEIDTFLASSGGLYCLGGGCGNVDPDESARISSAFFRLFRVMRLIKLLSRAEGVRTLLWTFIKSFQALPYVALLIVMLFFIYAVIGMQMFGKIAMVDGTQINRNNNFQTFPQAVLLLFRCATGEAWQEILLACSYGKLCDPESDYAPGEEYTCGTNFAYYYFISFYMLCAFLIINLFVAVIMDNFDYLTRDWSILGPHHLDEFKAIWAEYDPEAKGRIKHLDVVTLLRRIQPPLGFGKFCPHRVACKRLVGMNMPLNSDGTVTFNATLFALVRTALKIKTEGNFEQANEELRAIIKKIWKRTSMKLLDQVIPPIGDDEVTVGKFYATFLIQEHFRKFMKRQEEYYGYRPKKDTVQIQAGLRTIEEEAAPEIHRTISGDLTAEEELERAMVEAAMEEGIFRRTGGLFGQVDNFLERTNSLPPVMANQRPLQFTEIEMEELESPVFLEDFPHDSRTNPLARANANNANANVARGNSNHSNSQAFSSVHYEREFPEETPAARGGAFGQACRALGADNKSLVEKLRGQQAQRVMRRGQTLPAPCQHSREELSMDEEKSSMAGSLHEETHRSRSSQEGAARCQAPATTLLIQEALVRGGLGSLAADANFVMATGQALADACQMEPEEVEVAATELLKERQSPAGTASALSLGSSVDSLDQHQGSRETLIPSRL
Experiment: Affinity to the calcium channel: inhibition of specific (S)-3H-devapamil binding to guinea-pig skeletal muscle membranes
Conditions: 1 nM (S)-3H-devapamil, pH 7.4, 20° C., 60 minutes, read-out: Test 3 Ki
Listing of entries alongside the reported Ki.
Write the number in nM without appending the unit.

Here is how some compounds turned out for Ki.
compound="OC(COc1ccc(F)cc1)CN1CCN(CCCC(c2ccc(F)cc2)c2ccc(F)cc2)CC1 (stereo not shown) [Example 2]" numeric_value=9.1
compound="OC(COc1ccccc1)CN1CCN(CCCC(c2ccc(F)cc2)c2ccc(F)cc2)CC1 (stereo not shown)" numeric_value=8
compound="OC(COc1ccc(Cl)c(Cl)c1)CN1CCN(CCCC(c2ccccc2)c2ccccc2)CC1 (stereo not shown)" numeric_value=22

Okay, next one:
**Q:** Given the entry OC(CSc1ccc(F)cc1)CN1CCN(CCCC(c2ccc(F)cc2)c2ccc(F)cc2)CC1 (stereo not shown) , report its measured Ki.
**A:** 9
